The origin of these recorded values is PubChem BioAssay AID392.

Some compounds, each annotated with its measured Tm shift.
# measurement-target: Peroxisomal trans-2-enoyl-CoA reductase (Homo sapiens)
# assay-procedure: compound-induced PECR thermal stabilization – biophysical, human, DSF, SYPRO orange, NADP+ (AID 392)
# condition-set: recombinant PECR, at 100 µM, protein 2 µM, buffer 10 mM HEPES, pH 7.5, NaCl 150 mM, NADP+ 200 µM, stronger effect = higher value
measured-property: Tm shift

CCCCCCCCCC(=O)SCCNC(=O)CCNC(=O)C(O)C(C)(C)COP(=O)(O)OP(=O)(O)OCC1OC(n2cnc3c(N)ncnc32)C(O)C1OP(=O)(O)O (stereo unspecified) | 4.1 Celsius
C[C@@]12CCC3=C(CCc4cc(O)ccc43)[C@]13C[C@@H]3CC2=C(F)F | 23.8 Celsius
O=C1C2(Cl)C3(Cl)C4(Cl)C(Cl)(Cl)C5(Cl)C3(Cl)C1(Cl)C5(Cl)C24Cl (stereo unspecified) | 3.1 Celsius
O=C1Nc2ccccc2C1=O | 6.4 Celsius
C[C@@]12CCC3=C(CCc4cc(O)ccc43)[C@H]1CCC2=C(F)F | 3.7 Celsius
C=CC1=C(C)/C(=C/c2[nH]c(Cc3[nH]c(/C=C4\NC(=O)C(C)=C4C=C)c(C)c3CCC(=O)O)c(CCC(=O)O)c2C)NC1=O | 10 Celsius
